Read-out: Cytochrome P450 2C19 (Homo sapiens) (UniProt P33261)
Sequence (P33261 whole entry, looked up): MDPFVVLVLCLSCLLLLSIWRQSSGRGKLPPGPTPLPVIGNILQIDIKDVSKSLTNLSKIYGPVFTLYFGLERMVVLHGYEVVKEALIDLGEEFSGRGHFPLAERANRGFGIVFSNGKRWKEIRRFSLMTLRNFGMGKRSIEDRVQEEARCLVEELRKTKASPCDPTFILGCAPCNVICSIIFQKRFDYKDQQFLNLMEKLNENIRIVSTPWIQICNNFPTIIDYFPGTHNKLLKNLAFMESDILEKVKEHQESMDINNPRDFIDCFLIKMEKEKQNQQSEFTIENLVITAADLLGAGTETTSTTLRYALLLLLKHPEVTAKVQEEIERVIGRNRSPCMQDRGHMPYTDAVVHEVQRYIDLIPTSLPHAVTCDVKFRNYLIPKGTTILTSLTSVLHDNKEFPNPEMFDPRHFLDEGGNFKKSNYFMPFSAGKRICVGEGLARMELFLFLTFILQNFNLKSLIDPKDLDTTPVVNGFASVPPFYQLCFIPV
test_method_notes: LTEA_HepaRG_CYP2C19: Life Technologies and Expression Analysis (LTEA) Assay for CYP2C19 using HepaRG (AID 2283482)
details: mRNA level, 48 h; actives raise or lower the signal
Calls of active or inactive are those of the source. How the source made its calls: active means hit-call score of the fitted dose curve at least 0.9, where 1 is the maximum; inactive means score below 0.9.
Your answer must be one of the following: 1 (yes) (active), 0 (no) (inactive)

Q) Identify the outcome logged in this assay for the molecule shown: CC(C)(OO)c1ccccc1
A) 0 (no)

Q) Identify the outcome logged in this assay for the molecule shown: O=C(O)C(F)(F)C(F)(F)C(F)(F)C(F)(F)C(F)(F)C(F)(F)F
A) 1 (yes)

Q) Identify the outcome logged in this assay for the molecule shown: CCC(=O)C(CC(C)N(C)C)(c1ccccc1)c1ccccc1 (stereo not drawn)
A) 1 (yes)
